# PROTOCOL_DESCRIPTION: 1-Octanol/water distribution coefficient, logP of compound at 60 ug/ml shaken for 30 mins and measured by ultraviolet spectrophotometry analysis
# Type: physicochemical
REPORTED_PROPERTY: logP at 0.5 h
One number for each entry.

These recorded examples may help you get a feel for the data.
[
  {
    "MOLECULE": "Cc1cc(C)cc(-c2cccc(C3(c4ccccc4)N=C(N)N(C)C3=O)c2)c1 (centres undefined)",
    "logP at 0.5 h": 2.56
  },
  {
    "MOLECULE": "Cc1cc(C)c(-c2cccc(C3(c4ccccc4)N=C(N)N(C)C3=O)c2)c(C)c1 (centres undefined)",
    "logP at 0.5 h": 2.55
  },
  {
    "MOLECULE": "CCc1ccc(-c2cccc(C3(c4ccccc4)N=C(N)N(C)C3=O)c2)cc1 (centres undefined)",
    "logP at 0.5 h": 2.56
  }
]

Report logP at 0.5 h for every entry below.
1. Cc1ccc(F)cc1-c1cccc(C2(c3ccccc3)N=C(N)N(C)C2=O)c1 (centres undefined)
2. CN1C(=O)C(c2ccccc2)(c2cccc(-c3cccc(-c4ccccc4)c3)c2)N=C1N (centres undefined)
3. COc1cc(OC)cc(-c2cccc(C3(c4ccccc4)N=C(N)N(C)C3=O)c2)c1 (centres undefined)
4. Cc1ccc(C)c(-c2cccc(C3(c4ccccc4)N=C(N)N(C)C3=O)c2)c1 (centres undefined)

Response given:
2.35
3.14
2.41
2.52

Report logP at 0.5 h for every entry below.
1. CN1C(=O)C(c2ccccc2)(c2cccc(-c3ccc(OCc4ccccc4)cc3)c2)N=C1N (centres undefined)
2. COc1cccc(-c2cccc(C3(c4ccccc4)N=C(N)N(C)C3=O)c2)c1OC (centres undefined)

Response given:
1. 2.99
2. 2.15

Report logP at 0.5 h for every entry below.
1. Cc1cccc(C)c1-c1cccc(C2(c3ccccc3)N=C(N)N(C)C2=O)c1 (centres undefined)
2. COc1cccc(OC)c1-c1cccc(C2(c3ccccc3)N=C(N)N(C)C2=O)c1 (centres undefined)
3. CN1C(=O)C(c2ccccc2)(c2cccc(Br)c2)N=C1N (centres undefined)
4. COc1ccc(-c2cccc(C3(c4ccccc4)N=C(N)N(C)C3=O)c2)c(OC)c1 (centres undefined)
5. COc1ccc(OC)c(-c2cccc(C3(c4ccccc4)N=C(N)N(C)C3=O)c2)c1 (centres undefined)

Response given:
1: 2.42; 2: 2.02; 3: 2.04; 4: 2.46; 5: 2.54

###

# PROTOCOL_DESCRIPTION: 1-Octanol/water distribution coefficient, logP of compound at 60 ug/ml shaken for 30 mins and measured by ultraviolet spectrophotometry analysis
# Format: physicochemical
REPORTED_PROPERTY: logP at 0.5 h
Numbers only.

[
  {
    "COMPOUND": "CN1C(=O)C(c2ccccc2)(c2cccc(-c3ccc(C(C)(C)C)cc3)c2)N=C1N (stereo not given)",
    "REPORTED_PROPERTY": "logP at 0.5 h",
    "REPORTED": 3.1
  },
  {
    "COMPOUND": "CN1C(=O)C(c2ccccc2)(c2cccc(-c3ccc(-c4ccccc4)cc3)c2)N=C1N (stereo not given)",
    "REPORTED_PROPERTY": "logP at 0.5 h",
    "REPORTED": 3.18
  },
  {
    "COMPOUND": "COc1ccc(F)cc1-c1cccc(C2(c3ccccc3)N=C(N)N(C)C2=O)c1 (stereo not given)",
    "REPORTED_PROPERTY": "logP at 0.5 h",
    "REPORTED": 2.86
  },
  {
    "COMPOUND": "Cc1ccc(-c2cccc(C3(c4ccccc4)N=C(N)N(C)C3=O)c2)c(F)c1 (stereo not given)",
    "REPORTED_PROPERTY": "logP at 0.5 h",
    "REPORTED": 2.97
  },
  {
    "COMPOUND": "CN1C(=O)C(c2ccccc2)(c2ccccc2)N=C1N",
    "REPORTED_PROPERTY": "logP at 0.5 h",
    "REPORTED": 1.9
  },
  {
    "COMPOUND": "Cc1ccc(-c2cccc(C3(c4ccccc4)N=C(N)N(C)C3=O)c2)cc1C (stereo not given)",
    "REPORTED_PROPERTY": "logP at 0.5 h",
    "REPORTED": 2.49
  }
]

Report logP at 0.5 h for every entry below.
1. Cc1cc(F)ccc1-c1cccc(C2(c3ccccc3)N=C(N)N(C)C2=O)c1 (stereo not given)
2. Cc1ccc(-c2cccc(C3(c4ccccc4)N=C(N)N(C)C3=O)c2)c(C)c1 (stereo not given)
3. COc1ccc(-c2cccc(C3(c4ccccc4)N=C(N)N(C)C3=O)c2)cc1OC (stereo not given)

Response given:
1. 2.34
2. 2.51
3. 2.49

Challenge: Fill blank: measured logP at 0.5 h of the compound COc1cccc(-c2cccc(C3(c4ccccc4)N=C(N)N(C)C3=O)c2)c1F (stereo not given) is ____.
Response given: 2.72

###

A set of compounds tested on Beta-secretase 1 (Homo sapiens, UniProt P56817), with measured IC50:
One number for each entry, in µM.

These recorded examples may help you get a feel for the data.
[
  {
    "COMPOUND": "Cc1ccc(-c2cccc(C3(c4ccccc4)N=C(N)N(C)C3=O)c2)cc1C (configuration not stated)",
    "IC50 / µM": 0.425
  },
  {
    "COMPOUND": "COc1ccc(F)cc1-c1cccc(C2(c3ccccc3)N=C(N)N(C)C2=O)c1 (configuration not stated)",
    "IC50 / µM": 0.173
  },
  {
    "COMPOUND": "COc1cccc(OC)c1-c1cccc(C2(c3ccccc3)N=C(N)N(C)C2=O)c1 (configuration not stated)",
    "IC50 / µM": 0.721
  }
]

Challenge: Fill blank: measured IC50 of the compound COc1cc(OC)cc(-c2cccc(C3(c4ccccc4)N=C(N)N(C)C3=O)c2)c1 (configuration not stated) is ____.
Response given: 0.851

###

# ASSAY_TARGET: Beta-secretase 1 (Homo sapiens)
# Sequence (P56817 whole entry, the tested form may be a part): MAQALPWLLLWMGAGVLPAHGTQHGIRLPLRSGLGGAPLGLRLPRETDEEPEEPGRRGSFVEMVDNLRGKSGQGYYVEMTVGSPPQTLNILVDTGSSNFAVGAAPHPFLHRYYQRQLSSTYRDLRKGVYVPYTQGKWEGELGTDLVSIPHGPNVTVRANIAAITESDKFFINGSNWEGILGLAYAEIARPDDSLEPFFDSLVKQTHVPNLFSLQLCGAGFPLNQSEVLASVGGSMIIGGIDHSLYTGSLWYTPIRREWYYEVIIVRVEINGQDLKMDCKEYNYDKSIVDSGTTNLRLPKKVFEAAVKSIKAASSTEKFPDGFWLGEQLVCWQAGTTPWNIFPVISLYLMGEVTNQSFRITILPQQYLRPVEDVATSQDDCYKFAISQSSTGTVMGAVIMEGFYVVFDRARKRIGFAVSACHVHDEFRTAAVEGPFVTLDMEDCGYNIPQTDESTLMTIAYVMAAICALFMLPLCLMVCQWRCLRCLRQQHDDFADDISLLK
# PROTOCOL_DESCRIPTION: Inhibition of human BACE1 (1 to 460 residues) expressed in baculovirus infected insect cells at 10 uM using Rh-EVNLDAEFK-quencher as substrate measured after 90 mins by FRET assay relative to control
REPORTED_PROPERTY: inhibition
I'd appreciate it if you wrote the number followed by its unit.

These recorded examples may help you get a feel for the data.
[
  {
    "MOLECULE": "CN1C(=O)C(c2ccccc2)(c2cccc(-c3ccc(C(C)(C)C)cc3)c2)N=C1N (centres undefined)",
    "inhibition": "34.2%"
  },
  {
    "MOLECULE": "CCc1ccc(-c2cccc(C3(c4ccccc4)N=C(N)N(C)C3=O)c2)cc1 (centres undefined)",
    "inhibition": "43.5%"
  },
  {
    "MOLECULE": "CN1C(=O)C(c2ccccc2)(c2ccccc2)N=C1N",
    "inhibition": "62.2%"
  },
  {
    "MOLECULE": "COc1cccc(-c2cccc(C3(c4ccccc4)N=C(N)N(C)C3=O)c2)c1F (centres undefined)",
    "inhibition": "94.7%"
  },
  {
    "MOLECULE": "Cc1ccc(F)cc1-c1cccc(C2(c3ccccc3)N=C(N)N(C)C2=O)c1 (centres undefined)",
    "inhibition": "92%"
  },
  {
    "MOLECULE": "Cc1ccc(-c2cccc(C3(c4ccccc4)N=C(N)N(C)C3=O)c2)cc1C (centres undefined)",
    "inhibition": "88.3%"
  },
  {
    "MOLECULE": "Cc1ccc(-c2cccc(C3(c4ccccc4)N=C(N)N(C)C3=O)c2)c(F)c1 (centres undefined)",
    "inhibition": "97%"
  },
  {
    "MOLECULE": "Cc1cc(C)cc(-c2cccc(C3(c4ccccc4)N=C(N)N(C)C3=O)c2)c1 (centres undefined)",
    "inhibition": "47.2%"
  },
  {
    "MOLECULE": "COc1cccc(OC)c1-c1cccc(C2(c3ccccc3)N=C(N)N(C)C2=O)c1 (centres undefined)",
    "inhibition": "82.1%"
  },
  {
    "MOLECULE": "COc1cccc(-c2cccc(C3(c4ccccc4)N=C(N)N(C)C3=O)c2)c1OC (centres undefined)",
    "inhibition": "78.6%"
  }
]

Report inhibition for every entry below.
1. Cc1ccc(-c2cccc(C3(c4ccccc4)N=C(N)N(C)C3=O)c2)c(C)c1 (centres undefined)
2. Cc1cccc(C)c1-c1cccc(C2(c3ccccc3)N=C(N)N(C)C2=O)c1 (centres undefined)
3. CN1C(=O)C(c2ccccc2)(c2cccc(-c3ccc(-c4ccccc4)cc3)c2)N=C1N (centres undefined)
4. CN1C(=O)C(c2ccccc2)(c2cccc(-c3cccc(-c4ccccc4)c3)c2)N=C1N (centres undefined)
5. COc1cc(OC)cc(-c2cccc(C3(c4ccccc4)N=C(N)N(C)C3=O)c2)c1 (centres undefined)

Response given:
1: 40.9%; 2: 34.1%; 3: 43.9%; 4: 20.5%; 5: 80.7%

Report inhibition for every entry below.
1. Cc1cc(C)c(-c2cccc(C3(c4ccccc4)N=C(N)N(C)C3=O)c2)c(C)c1 (centres undefined)
2. Cc1ccc(C)c(-c2cccc(C3(c4ccccc4)N=C(N)N(C)C3=O)c2)c1 (centres undefined)

Response given:
45.7%
42.1%

Report inhibition for every entry below.
1. COc1ccc(F)cc1-c1cccc(C2(c3ccccc3)N=C(N)N(C)C2=O)c1 (centres undefined)
2. CN1C(=O)C(c2ccccc2)(c2cccc(-c3ccc(OCc4ccccc4)cc3)c2)N=C1N (centres undefined)
3. Cc1cc(F)ccc1-c1cccc(C2(c3ccccc3)N=C(N)N(C)C2=O)c1 (centres undefined)

Response given:
1: 96%; 2: 37.7%; 3: 87.7%
